Test system: PfAP2-LT AP2 domain (GST-tagged)
Assay comment: gcPBM binding intensity (ln(normalized median fluorescence intensity)); higher = stronger DNA binding
Whole data set: some 25,000 sequences, median “ln(normalized median fluorescence intensity)” near 8.9, cut for the highest 2% near 10. This excerpt belongs to a sample that is enriched for the highest values.
Quantity measured: gcPBM binding intensity (ln)
Give your answer as a number; write no unit.

TATTTATTAATATGTACACACATCAACCATATTAAC [CACACA_site7001]; 9.04
ATAATATGAAATATAACACACATATATAAAAACATT [CACACA_site866]; 9.11
TATGAACACAGACACACACACAAAAAAAAAAAAAAA [CACACA_site7037]; 9.18
AAAAAAAATATGAAAACACACATATATAAATAAATA [CACACA_site113]; 8.88
AAAATTTATAGTATGGTGCATAAAAATATATATATA; 8.82

q: Fill in the blank: the reported gcPBM binding intensity (ln) of ATAAAAGATTTATACATACACACATATTATATTCAC [CACACA_site3714] is ____.
a: 9.02

q: Repeat with ATTCTACACGCACATACACACATATAAATATAAATA [CACACA_site7582]
a: 9.24

q: Repeat with ATATAAATAATATAAATACACACTAAAAAAAATATA [CACACA_site542]
a: 8.88
